System: TRPC4 beta (transient receptor potential cation channel C4), mouse
METHOD_DESCRIPTION: TRPC4 cation channel opening, retest – cell-based, Fluo4 calcium, HEK293 TRPC4beta/mu-opioid, duplicates, 10 µM, confirmation (AID 2426)
EXPERIMENTAL_CONTEXT: Fluo4 calcium fluorescence, at 10 µM
The source made the active and inactive calls.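 How the source made its calls: active means fluorescence ratio normalized to control raised more than 50% in primary screen plus both repeat runs; inactive means the rest.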
Can you answer with just one of these options? active, inactive

Check out these entries, answers already filled in.
1. CCCCCCCNC(=O)COc1ccc2c(c1)C(=O)CC(C)(C)O2	inactive
2. Cc1cccn2cc(-c3c[nH]c4ccccc34)nc12	inactive

Answer briefly: the call reported for Cc1csc2c(N3CCN(C(=O)Nc4ccc(Cl)c(Cl)c4)CC3)ncnc12 in this assay.
active

Each compound tested received a call. Report the one for Cc1cc(C)cc(N/C(N)=N/c2nc(C)cc(C)n2)c1 .
inactive

* * *

METHOD_DESCRIPTION: serotonin-gated TRPC4 signal block – cell-based, second counter screen, HEK293 TRPC4/5HT1a, Fluo-4, counter-screen for TRPC4 inhibitor project, confirmation (AID 434978)
EXPERIMENTAL_CONTEXT: Fluo-4 calcium flux, at 10 µM, serotonin added to trigger calcium flux
The source made the active and inactive calls.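 The calls were made as follows: active = primary screen active whose calcium signal fell more than 3 SD beyond the full-serotonin control mean in both duplicate plates; inactive = the rest.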
Assign a class; possible classes are y (active), n (inactive)

Below are worked cases with known answers.
1) CN(C)CCCNc1nc(N)c([N+](=O)[O-])c(NCc2ccccc2)n1	n
2) CCn1c(=O)c2cc(C(=O)N(C)c3cc(C)ccc3OC)sc2c2ccccc21	n
3) Cc1ccc(Cn2c(=N)c(C(=O)NC3CCCCC3)cc3c(=O)n4ccccc4nc32)cc1	n
4) COc1cccc2cc(C(N)=O)/c(=N\NC(=O)c3ccccc3)oc12	y
5) CCCCn1c(SCC(=O)N2c3ccccc3Sc3ccccc32)nc2c1c(=O)n(C)c(=O)n2C	n

Record lookup: outcome of this test for CN(C)C(CNC(=O)CCc1nc2ccccc2s1)c1ccccc1 (stereo not given) ?
n

Assay outcome for O=[N+]([O-])c1cc(Cl)cc(/C=N/NC(=S)Nc2ccc(S(=O)(=O)N3CCOCC3)cc2)c1O : what was it?
n

* * *

METHOD_DESCRIPTION: serotonin-gated TRPC4 signal block – cell-based, second counter screen, HEK293 TRPC4/5HT1a, Fluo-4, counter-screen for TRPC4 inhibitor project, confirmation (AID 434978)
EXPERIMENTAL_CONTEXT: Fluo-4 calcium flux, at 10 µM, serotonin added to trigger calcium flux
Activity calls are given as the source filed them.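 Rule for the calls: active = primary screen active whose calcium signal fell more than 3 SD beyond the full-serotonin control mean in both duplicate plates; inactive = the rest.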
Would you mind answering with one of these outcomes? class 1 for active, class 0 for inactive

The examples below pair each entry with its known result.
1) CCOC(=O)C1(Cc2ccccc2)CCN(Cc2cccn2-c2cccnc2)CC1	class 0
2) Cc1ccn2cc(CCNC(=O)c3ccc(Br)o3)nc2c1	class 1
3) COc1ccc(C(=O)C2CCCN(C3Cc4ccccc4C3)C2)cc1OC (stereo not drawn)	class 0
4) Cc1cc(C(=O)CN2C(=O)C(=O)N(CC(C)C)C2=O)c(C)n1-c1ccccc1F	class 0
5) CC1(C)CC2CC(C)(CN2C(=O)c2cc(-c3ccc(O)cc3)on2)C1 (stereo not drawn)	class 1

What did this assay record as the result for Cc1cc(Oc2ccc(C(C)(C)C)cc2)nc(N2CCOCC2)n1 ?
class 0

Would you mind telling me which call this test gave COc1ccc(C(CNC(=O)/C=C/c2c(Cl)nc3ccccn23)N(C)C)cc1 (stereo not drawn) ?
class 0

Query: recorded result category for CN(C)c1ccc(C(CNC(=O)Cc2cccc3ccccc23)N(C)C)cc1 (stereo not drawn) in this test
class 0

These measurements were taken from PubChem BioAssay.
